- test description: Therapeutic index, ratio of HD100 for hemolytic activity in human erythrocytes to MIC against Enterococcus faecalis ATCC 29212
- Format: toxicity, cell-based
- assay setup: read-out: TI
Square brackets hold non-standard residues; d marks the D form. Peptide text beside a SMILES is read from it. Orn = NCCC[C@H](N)C(=O)O
measured quantity: selectivity ratio
API note: the answer field is a bare number with no unit suffix.

So what does the record say about selectivity ratio for CC(C)C[C@@H]1NC(=O)[C@H](CCCN)NC(=O)[C@H](C(C)C)NC(=O)[C@@H]2CCCN2C(=O)[C@@H](Cc2ccccc2)NC(=O)[C@H](CC(C)C)NC(=O)[C@H](CCCN)NC(=O)[C@H](C(C)C)NC(=O)[C@@H]2CCCN2C(=O)[C@@H](Cc2ccccc2)NC1=O (cyclo(L[dF]PV[Orn]L[dF]PV[Orn])) ? 7.8

# input compound: CC(C)C[C@@H]1NC(=O)[C@H](CCCN)NC(=O)[C@H](C(C)C)NC(=O)[C@@H]2CCCN2C(=O)[C@@H](Cc2ccccc2)NC(=O)[C@H](CC(C)C)NC(=O)[C@H](CCCN)NC(=O)[C@H](C(C)C)NC(=O)[C@H](CCCN)NC(=O)[C@H](CC(C)C)NC(=O)[C@H]2CC[C@H](OCc3ccccc3)[C@@H](CNC(=O)[C@H](C(C)C)NC(=O)[C@H](CCCN)NC1=O)O2 ; wanted: its selectivity ratio 7.8

Provenance of the data: ChEMBL document CHEMBL4376803
